Tested on: RARa homodimer (NR concentration 270 nM)
Assay: PBM binding z-score (relative to random genomic background probes); higher = stronger binding; sequences stand for … in GC…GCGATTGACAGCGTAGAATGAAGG
Classification field: enter true (1) for PBM binding z-score values not below -0.01, false (0) for values below it.

Solved cases below.
[[record]]
seq_text = "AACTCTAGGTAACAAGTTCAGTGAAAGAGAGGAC"
group = "true (1)"

[[record]]
seq_text = "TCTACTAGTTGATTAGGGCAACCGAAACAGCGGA"
group = "false (0)"

[[record]]
seq_text = "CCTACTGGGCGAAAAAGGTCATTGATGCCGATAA"
group = "true (1)"


Please tell me: is the sequence `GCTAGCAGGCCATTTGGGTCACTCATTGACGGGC` at or over -0.01 in terms of PBM binding z-score?
false (0)

Evaluate `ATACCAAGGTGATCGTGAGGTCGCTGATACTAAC` : PBM binding z-score at minimum -0.01?
false (0)

Quick check, PBM binding z-score >= -0.01? `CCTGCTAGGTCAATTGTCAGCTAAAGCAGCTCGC`
false (0)

* * *

Tested on: PPARg homodimer (NR concentration 180 nM)
Assay: PBM binding z-score (relative to random genomic background probes); higher = stronger binding; sequences stand for … in GC…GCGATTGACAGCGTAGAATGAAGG
Label condition met when PBM binding z-score is at or above 0.6; anything below gets condition not met.

Example results:
[[record]]
seq_text = "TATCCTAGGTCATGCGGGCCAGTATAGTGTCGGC"
group = "condition met"

[[record]]
seq_text = "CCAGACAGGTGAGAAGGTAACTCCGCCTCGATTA"
group = "condition not met"

[[record]]
seq_text = "GCTAGTAGATCAAGGTTAAGAAAGACTAAGCTAA"
group = "condition not met"

[[record]]
seq_text = "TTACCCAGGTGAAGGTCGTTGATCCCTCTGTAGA"
group = "condition not met"

[[record]]
seq_text = "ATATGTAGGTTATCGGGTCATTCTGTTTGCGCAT"
group = "condition met"


Is it the case that `CCTCCAAGGTCAAAGGTCAGTGAAGAGATGACGG` has PBM binding z-score reaching or exceeding 0.6?
condition met

Check this sequence for PBM binding z-score at or above 0.6: `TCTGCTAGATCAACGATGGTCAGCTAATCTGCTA`
condition not met

Could you verify whether the entry `TTGAGTAGGTTACCAATGGGGCATTCAGCTTTCT` shows PBM binding z-score of no less than 0.6?
condition met

Quick check, PBM binding z-score >= 0.6? `TCTTGTAGATCCAAGGTTAAGAAAGCCGAAGCCT`
condition not met

Quick check: does `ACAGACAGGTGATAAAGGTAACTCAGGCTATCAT` have PBM binding z-score greater than or equal to 0.6?
condition not met

I'd appreciate it if you could say whether `AATACAGGGTCACTAGGCCAAAGTAGGTACGAAT` has PBM binding z-score at least equal to 0.6.
condition met

Exam item: decide whether the reported PBM binding z-score for `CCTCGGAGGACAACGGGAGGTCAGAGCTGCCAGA` is at least 0.6.
condition met

Please check the record `CGAACTAGGTCATCCAGGAGAGTGAATACATTGA` and state if its PBM binding z-score is at or above 0.6.
condition met

Could you verify whether the entry `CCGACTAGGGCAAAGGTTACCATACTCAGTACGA` shows PBM binding z-score of no less than 0.6?
condition met

Record `TCATAAAGGTAATACAGGTGAAAGTCGGCATCTA` ; criterion: PBM binding z-score no lower than 0.6. Met?
condition met

Hello, I need to know if `TAGCTTAGGTCATTCAGGGGCCAGTATAGAAAGC` has measured PBM binding z-score not below 0.6. Thanks!
condition met

Assess whether reported PBM binding z-score for `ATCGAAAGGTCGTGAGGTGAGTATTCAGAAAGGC` sits at 0.6 or higher.
condition met

// inclusive: PBM binding z-score at least 0.6? input: `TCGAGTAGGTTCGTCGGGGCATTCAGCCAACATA`
condition not met

In plain terms: is recorded PBM binding z-score at least 0.6 for `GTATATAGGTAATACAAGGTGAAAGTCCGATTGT` ?
condition met

Dear colleague, could you confirm whether `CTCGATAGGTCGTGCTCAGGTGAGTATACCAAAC` has PBM binding z-score at or above 0.6?
condition not met

Confirm if PBM binding z-score reported for the sequence `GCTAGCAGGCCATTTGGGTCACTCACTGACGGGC` is 0.6 or above.
condition not met

Evaluate `GTACCAAGGTGATTAGGTCGTTGATGAGTAGGCG` : PBM binding z-score at minimum 0.6?
condition met

Could you tell me if the measured PBM binding z-score of `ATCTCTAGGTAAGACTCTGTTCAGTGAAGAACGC` reaches 0.6 or more?
condition met
